target: VDR (Homo sapiens, UniProt P11473); construct: the receptor expression vector pGal4-VDR-LBD (10 ng); expressed in transfected cells; host or cells: Caco-2 cells; experiment: Caco-2 cell co-transfection assay (VDR CTF); assay type: cell-based; details: Caco-2 cells, pGal4-VDR-LBD co-transfection, luciferase reporter
experimental_endpoint: EC50 (nM)
# output: bare number, implied unit nM

**Query** Please supply the value of reported EC50 for the item CCC(CC)(c1ccc(OC[C@H](O)C(C)(C)C)c(C)c1)c1ccc(OS(C)(=O)=O)c(C)c1 [Ex. 1]
**Result** 118

**Query** Please supply the value of reported EC50 for the item Cc1cc(C2(c3ccc(OCC(=O)C(C)(C)C)c(C)c3)CCCCC2)ccc1OCC(=O)C(C)(C)C [CC, reference compound]
**Result** 710000

**Query** Please supply the value of reported EC50 for the item CCC(CC)(c1ccc(OS(C)(=O)=O)cc1)c1ccc(OCC(O)C(C)(C)C)c(Cl)c1 (single isomer, unassigned) [Ex. 45, 51B]
**Result** 353

**Query** Please supply the value of reported EC50 for the item CCCS(=O)(=O)Nc1ccc(C(CC)(CC)c2ccc(OCC(=O)C(C)(C)C)c(C)c2)cc1C
**Result** 333

**Query** Please supply the value of reported EC50 for the item CCC(CC)(c1ccc(OCC(=O)C(C)(C)C)c(C)c1)c1ccc(OS(=O)(=O)CC(F)(F)F)c(C)c1
**Result** 331

**Query** Please supply the value of reported EC50 for the item CCC(CC)(c1ccc(OC[C@@](C)(O)C(C)(C)C)c(C)c1)c1ccc(OS(=O)(=O)C(F)(F)F)c(C)c1 (stereo in doubt)
**Result** 616

**Query** Please supply the value of reported EC50 for the item CCC(CC)(c1ccc(OCC(=O)C(C)(C)C)c(C)c1)c1cc(C)c(OS(C)(=O)=O)c(C)c1
**Result** 375

**Query** Please supply the value of reported EC50 for the item CCCS(=O)(=O)N(c1ccc(C(CC)(CC)c2ccc(OCC(=O)C(C)(C)C)c(C)c2)cc1C)S(=O)(=O)CCC
**Result** 1290

**Query** Please supply the value of reported EC50 for the item CCC(CC)(c1ccc(OC[C@H](O)C(C)(C)C)c(C)c1)c1ccc(OS(C)(=O)=O)c(C)c1 (single isomer, unassigned) [Ex. 2]
**Result** 46.5

**Query** Please supply the value of reported EC50 for the item CCC(CC)(c1ccc(NS(=O)(=O)CC)c(C)c1)c1ccc(OCC(=O)C(C)(C)C)c(C)c1
**Result** 6.06

**Query** Please supply the value of reported EC50 for the item CCC(CC)(c1ccc(OCC(O)C(C)(C)C)cc1)c1ccc(OS(C)(=O)=O)c(C)c1 (stereo not drawn)
**Result** 308

**Query** Please supply the value of reported EC50 for the item CCC(CC)(c1ccc(OCC(O)C(C)(C)C)c(C)c1)c1ccc(OS(=O)(=O)C(F)(F)F)c(C)c1 (stereo not drawn)
**Result** 1140

**Query** Please supply the value of reported EC50 for the item CCC(CC)(c1ccc(OCC(=O)C(C)(C)C)c(C)c1)c1ccc(N(C)S(C)(=O)=O)c(C)c1
**Result** 485

**Query** Please supply the value of reported EC50 for the item CCC(CC)(c1ccc(NS(C)(=O)=O)c(C)c1)c1ccc(OCC(O)C(C)(C)C)c(C)c1 (stereo not drawn) [Ex. 12]
**Result** 112

**Query** Please supply the value of reported EC50 for the item CCC(CC)(c1ccc(OCC(=O)C(C)(C)C)cc1)c1ccc(OS(C)(=O)=O)c(C)c1
**Result** 592

* * *

molecular target: VDR (Homo sapiens, UniProt P11473); construct: the receptor expression vector pGal4-VDR-LBD (10 ng); expressed in transfected cells; host or cells: Caco-2 cells; assay: Caco-2 cell co-transfection assay (VDR CTF); format: cell-based; settings: Caco-2 cells, pGal4-VDR-LBD co-transfection, luciferase reporter
experimental_endpoint: EC50 (nM)
# output: bare number, implied unit nM

**Query** Please indicate recorded EC50 of CCC(CC)(c1ccc(OCC(O)C(C)(C)C)c(C)c1)c1ccc(OS(=O)(=O)CC)c(C)c1 (stereo not shown) measured with VDR (Homo sapiens, UniProt P11473).
**Result** 13

**Query** Please indicate recorded EC50 of CCC(CC)(c1ccc(OS(C)(=O)=O)cc1)c1ccc(OCC(=O)C(C)(C)C)c(Cl)c1 measured with VDR (Homo sapiens, UniProt P11473).
**Result** 728

**Query** Please indicate recorded EC50 of CCC(CC)(c1ccc(OCC(=O)C(C)(C)C)c(C)c1)c1ccc(OS(C)(=O)=O)c(C)c1 measured with VDR (Homo sapiens, UniProt P11473).
**Result** 164

**Query** Please indicate recorded EC50 of CCC(CC)(c1ccc(OS(=O)(=O)C(F)(F)F)cc1)c1ccc(OCC(O)C(C)(C)C)c(Cl)c1 (stereo not shown) measured with VDR (Homo sapiens, UniProt P11473).
**Result** 431

* * *

Biological target: RXR-VDR heterodimer (Homo sapiens, UniProt P11473)
Construct: Add the Gal4-RXR-DEF and VP16-VDR-LBD
Sequence (P11473 127-423 limits assumed): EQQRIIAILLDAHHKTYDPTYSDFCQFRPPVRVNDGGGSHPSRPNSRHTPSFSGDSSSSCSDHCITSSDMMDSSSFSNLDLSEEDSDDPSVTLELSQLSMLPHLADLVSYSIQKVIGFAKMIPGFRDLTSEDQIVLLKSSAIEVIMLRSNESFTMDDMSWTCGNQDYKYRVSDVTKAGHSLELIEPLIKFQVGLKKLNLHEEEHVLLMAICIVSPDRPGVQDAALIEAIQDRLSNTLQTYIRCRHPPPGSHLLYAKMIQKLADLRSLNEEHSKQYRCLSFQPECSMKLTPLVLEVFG
Sequence (P19793 201-462 partner limits assumed): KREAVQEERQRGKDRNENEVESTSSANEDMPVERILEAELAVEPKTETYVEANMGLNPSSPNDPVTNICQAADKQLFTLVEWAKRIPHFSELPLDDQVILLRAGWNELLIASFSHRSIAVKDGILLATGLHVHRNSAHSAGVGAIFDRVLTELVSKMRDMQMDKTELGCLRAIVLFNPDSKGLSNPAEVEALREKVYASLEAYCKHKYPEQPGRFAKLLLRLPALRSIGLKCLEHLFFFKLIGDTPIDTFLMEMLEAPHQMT
Assay: RXR-VDR heterodimerization assay (SaOS-2 cells)
Details: Gal4-RXR-DEF / VP16-VDR-LBD, luciferase reporter
pEC50: −log10 of the molar value.
Please note: Yes applies when pEC50 is 8 or greater, and No applies otherwise.

**Query** Given the entry CCC(CC)(c1ccc(OCC(=O)C(C)(C)C)c(C)c1)c1ccc(N(C)S(C)(=O)=O)c(C)c1 , answer whether its pEC50 meets or surpasses 8.
**Result** No

**Query** Given the entry CCC(CC)(c1ccc(OS(C)(=O)=O)cc1)c1ccc(OCC(O)C(C)(C)C)c(Cl)c1 (single isomer, unassigned) [Ex. 45, 51B] , answer whether its pEC50 meets or surpasses 8.
**Result** No

**Query** Given the entry CCC(CC)(c1ccc(OC[C@H](O)C(C)(C)C)c(C)c1)c1ccc(OS(C)(=O)=O)c(C)c1 , answer whether its pEC50 meets or surpasses 8.
**Result** Yes

**Query** Given the entry CCC(CC)(c1ccc(NS(=O)(=O)CC)c(C)c1)c1ccc(OCC(=O)C(C)(C)C)c(C)c1 , answer whether its pEC50 meets or surpasses 8.
**Result** Yes

**Query** Given the entry CCCS(=O)(=O)Nc1ccc(C(CC)(CC)c2ccc(OCC(=O)C(C)(C)C)c(C)c2)cc1C , answer whether its pEC50 meets or surpasses 8.
**Result** Yes

**Query** Given the entry CCC(CC)(c1ccc(OS(C)(=O)=O)cc1)c1ccc(OCC(O)C(C)(C)C)c(Cl)c1 (single isomer, unassigned) [Ex. 44] , answer whether its pEC50 meets or surpasses 8.
**Result** Yes

* * *

molecular target: VDR (Homo sapiens); construct: the receptor expression vector pGal4-VDR-LBD (10 ng); expressed in transfected cells; host or cells: Caco-2 cells; assay: Caco-2 cell co-transfection assay (VDR CTF); assay type: cell-based; details: Caco-2 cells, pGal4-VDR-LBD co-transfection, luciferase reporter
Could you please report measured log10 of EC50 for the items listed next?
# values: log10(EC50), units nM

**Query** Please supply the value of reported log10 of EC50 for the item CCC(CC)(c1ccc(OCC(=O)C(C)(C)C)cc1)c1cc(C)c(OS(C)(=O)=O)c(C)c1
**Result** 2.79

**Query** Please supply the value of reported log10 of EC50 for the item CCC(CC)(c1ccc(OCC(=O)C(C)(C)C)c(C)c1)c1ccc(OS(=O)(=O)C(F)(F)F)c(C)c1
**Result** 3.20

**Query** Please supply the value of reported log10 of EC50 for the item CCC(CC)(c1ccc(OC[C@H](O)C(C)(C)C)c(C)c1)c1ccc(OS(C)(=O)=O)c(C)c1 (single isomer, unassigned) [Ex. 3]
**Result** 2.12

**Query** Please supply the value of reported log10 of EC50 for the item CCc1cc(C(CC)(CC)c2ccc(OS(C)(=O)=O)cc2)ccc1OCC(=O)C(C)(C)C
**Result** 1.26

**Query** Please supply the value of reported log10 of EC50 for the item CCC(CC)(c1ccc(OCC(=O)C(C)(C)C)c(C)c1)c1ccc(OS(=O)(=O)CC)c(C)c1
**Result** 1.54

**Query** Please supply the value of reported log10 of EC50 for the item CCC(CC)(c1ccc(OCC(C)(O)C(C)(C)C)c(C)c1)c1ccc(OS(=O)(=O)CC)c(C)c1 (centres unmarked)
**Result** 1.18

**Query** Please supply the value of reported log10 of EC50 for the item CCC(CC)(c1ccc(NS(C)(=O)=O)c(C)c1)c1ccc(OCC(O)C(C)(C)C)c(C)c1 (single isomer, unassigned) [Ex. 14]
**Result** 1.95

**Query** Please supply the value of reported log10 of EC50 for the item CCC(CC)(c1ccc(OS(C)(=O)=O)cc1)c1ccc(OCC(O)C(C)(C)C)c(Cl)c1 (single isomer, unassigned) [Ex. 44]
**Result** 1.94

# credit: patent US7750184B2
